Tested on: SKM MF
Measurement description: SKM MF AC1.4: ATPase of skeletal sarcomeric proteins (actin, tropomyosin, troponin complex, myosin), PK/LDH coupled enzyme system
Type: biochemical
Measurement setup: screen at pCa=6.5; † mean value, ‡ median value
Reported metric: SKM MF AC1.4 (µM)

> print(dat)
                               smiles.data  quantitative.readout
1     CSc1cnc2nc(O)n([C@H](C)c3ccccc3)c2n1                   2.9
2  C#Cc1cnc2nc(O)n([C@H](CC)CN3CCOCC3)c2n1                  0.13
3   C=Cc1cnc2nc(O)n([C@@H](C)c3ccccc3)c2n1                   2.4
4     C[C@H](c1ccccc1)n1c(O)nc2ncc(Br)nc21                   2.4
5              Oc1nc2ncc(Br)nc2n1Cc1ccccc1                  23.5

A = CCc1cnc2nc(O)n([C@@H](C)c3ccccc3)c2n1
B = CC[C@H](CN1CCOCC1)n1c(O)nc2ncc(Br)nc21
C = CC[C@@H](C)n1c(O)nc2ncc(Br)nc21
D = CC(C)(C)n1c(O)nc2ncc(Br)nc21
E = COc1cnc2nc(O)n([C@@H](C)c3ccccc3)c2n1
Request: Put the items in order so that reported SKM MF AC1.4 rises from first to last. Provide the ranking by listing each label in its place in the requested order.
Result: B, D, C, E, A
